These entries and their values trace back to BigSolDB 2.1.

Conditions: in ethanol, 278.15 K
measure_name: solubility (mole fraction)
Numbers only.

Inquiry: I have this molecule here, `CO[C@@]1(NC(=O)CSCC#N)C(=O)N2C(C(=O)O)=C(CSc3nnnn3C)CS[C@@H]21` , and I need its recorded solubility (mole fraction).
Reply text: 0.000215

* * *

Conditions: in water, 283.15 K
measure_name: solubility (mole fraction)
One number for each entry.

Inquiry: I have this compound here, `CO[C@@]1(NC(=O)CSCC#N)C(=O)N2C(C(=O)O)=C(CSc3nnnn3C)CS[C@@H]21` , and I need its recorded solubility (mole fraction).
Reply text: 2.05e-05

* * *

Settings: in water, 288.15 K
measure_name: solubility (mole fraction)

Inquiry: I have this compound here, `CO[C@@]1(NC(=O)CSCC#N)C(=O)N2C(C(=O)O)=C(CSc3nnnn3C)CS[C@@H]21` , and I need its recorded solubility (mole fraction).
Reply text: 2.65e-05
